- target: NMDA receptor composed of four subunits including 2 sets of heterodimers of NR1 and NR2B (Homo sapiens, UniProt Q13224)
- Construct: host or cells: HEK293 (tetracycline-induced expression)
- Sequence (Q13224 27-1484, other chains not shown): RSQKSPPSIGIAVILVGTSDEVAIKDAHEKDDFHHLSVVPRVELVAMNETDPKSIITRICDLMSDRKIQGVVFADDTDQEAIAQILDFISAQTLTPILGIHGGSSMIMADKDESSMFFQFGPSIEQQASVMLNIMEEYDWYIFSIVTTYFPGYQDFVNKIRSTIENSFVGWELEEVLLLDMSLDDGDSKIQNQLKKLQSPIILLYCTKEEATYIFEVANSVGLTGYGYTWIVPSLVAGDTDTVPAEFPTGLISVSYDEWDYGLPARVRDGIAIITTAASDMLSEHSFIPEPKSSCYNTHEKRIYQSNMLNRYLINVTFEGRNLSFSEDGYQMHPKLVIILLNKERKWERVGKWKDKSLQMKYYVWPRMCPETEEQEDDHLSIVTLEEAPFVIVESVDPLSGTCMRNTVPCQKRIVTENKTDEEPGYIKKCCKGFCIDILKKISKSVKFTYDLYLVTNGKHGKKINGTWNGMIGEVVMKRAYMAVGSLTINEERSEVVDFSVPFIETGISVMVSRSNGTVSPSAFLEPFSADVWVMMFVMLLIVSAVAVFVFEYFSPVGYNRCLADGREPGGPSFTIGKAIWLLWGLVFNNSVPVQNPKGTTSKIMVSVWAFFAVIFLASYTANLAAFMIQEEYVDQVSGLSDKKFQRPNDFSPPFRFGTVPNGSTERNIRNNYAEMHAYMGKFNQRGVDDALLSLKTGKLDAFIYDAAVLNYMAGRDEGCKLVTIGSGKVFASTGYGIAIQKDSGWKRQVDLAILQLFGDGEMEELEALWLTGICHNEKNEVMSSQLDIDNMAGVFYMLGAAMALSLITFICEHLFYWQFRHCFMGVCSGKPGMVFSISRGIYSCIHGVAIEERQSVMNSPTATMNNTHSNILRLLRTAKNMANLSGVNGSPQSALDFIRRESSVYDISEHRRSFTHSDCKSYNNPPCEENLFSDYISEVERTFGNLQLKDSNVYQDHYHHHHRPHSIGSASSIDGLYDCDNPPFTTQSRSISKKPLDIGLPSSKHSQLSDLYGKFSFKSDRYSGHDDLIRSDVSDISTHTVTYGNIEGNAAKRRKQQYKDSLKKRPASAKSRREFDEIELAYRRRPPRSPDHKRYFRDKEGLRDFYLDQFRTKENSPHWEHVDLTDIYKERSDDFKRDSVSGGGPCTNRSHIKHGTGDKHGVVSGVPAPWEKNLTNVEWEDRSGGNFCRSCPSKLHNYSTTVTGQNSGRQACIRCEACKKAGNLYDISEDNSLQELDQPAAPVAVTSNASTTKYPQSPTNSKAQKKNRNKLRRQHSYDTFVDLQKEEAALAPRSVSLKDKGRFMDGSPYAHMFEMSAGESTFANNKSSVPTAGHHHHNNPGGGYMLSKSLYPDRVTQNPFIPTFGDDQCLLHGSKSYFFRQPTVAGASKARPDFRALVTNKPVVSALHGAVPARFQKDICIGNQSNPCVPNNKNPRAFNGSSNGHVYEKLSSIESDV
- testSummary: NR2B Ca2+ influx assay (FLIPR, Fluo-4) in HEK293 cells expressing human GRIN1 and GRIN2B
- Assay type: cell-based
- recordedConditions: HEK293, 10 μM final compound concentration, glutamic acid/glycine-induced Ca2+ influx, read-out: inhibitory rate (10 μM compound concentration)
Binary call on inhibition at 10 µM: MET from 90% upward, NOT MET beneath that.

>>> classname("CCOc1ncc(C(=O)NCc2c(OC)ccc3ncn(C)c23)cc1Cl")
"MET"
>>> classname("CCc1ccc2[nH]nnc2c1CNC(=O)c1cc(F)c(OC)c(F)c1")
"MET"
>>> classname("COc1ccc2nc(C)n(C)c2c1CNC(=O)c1ccc(OC(F)F)cc1")
"NOT MET"
>>> classname("COc1c(F)cc(C(=O)NCc2cccc3ncn(C)c23)cc1F")
"NOT MET"
>>> classname("O=C(NCc1c(C2CC2)ccc2[nH]ncc12)c1cnc(OC(F)F)c(F)c1")
"MET"
>>> classname("COc1ccc2nc(C)n(C)c2c1CNC(=O)c1ccc(OC(F)F)c(F)c1")
"NOT MET"

* * *

- target: NMDA receptor composed of four subunits including 2 sets of heterodimers of NR1 and NR2B (Homo sapiens, UniProt Q13224)
- Construct: host or cells: HEK293 (tetracycline-induced expression)
- testSummary: NR2B Ca2+ influx assay (FLIPR, Fluo-4) in HEK293 cells expressing human GRIN1 and GRIN2B
- Assay type: cell-based
- recordedConditions: HEK293, 10 μM final compound concentration, glutamic acid/glycine-induced Ca2+ influx, read-out: inhibitory rate (10 μM compound concentration)
Items are presented alongside their recorded inhibition at 10 µM.
measure: inhibition at 10 µM (%)

>>> valueobserved("COc1c(F)cc(C(=O)NCc2c(C)ccc3ncn(C)c23)cc1F")
92
>>> valueobserved("O=C(NCc1cccc2[nH]ncc12)c1ccc(OC(F)F)cc1")
87
>>> valueobserved("O=C(NCc1cccc2[nH]ncc12)c1ccc(OC(F)(F)F)c(F)c1")
96
>>> valueobserved("O=C(NCc1cccc2[nH]ncc12)c1cnc(OC(F)F)c(F)c1")
94
>>> valueobserved("Cc1ccc(C(=O)NCc2c(C3CC3)ccc3[nH]ncc23)cc1F")
94
>>> valueobserved("COc1ccc2nc(C)n(C)c2c1CNC(=O)c1ccc(F)c(Cl)c1")
71
>>> valueobserved("COc1ccc(C(=O)NCc2c(C)ccc3[nH]nnc23)cc1F")
92
>>> valueobserved("O=C(NCc1c(C2CC2)ccc2[nH]ncc12)c1cc(F)c(Cl)c(Cl)c1")
94
>>> valueobserved("CCc1ccc2[nH]nnc2c1CNC(=O)c1ccc(OC(F)(F)F)cc1")
94
>>> valueobserved("O=C(NCc1c(C2CC2)ccc2[nH]ncc12)c1cc(Cl)cs1")
92
>>> valueobserved("CCc1ccc2[nH]ncc2c1CNC(=O)c1cc(F)c(OC)c(F)c1")
94
>>> valueobserved("COc1ccc2nc(C)n(C)c2c1CNC(=O)c1csc(Cl)c1")
70
>>> valueobserved("CCc1ccc2ncn(C)c2c1CNC(=O)c1csc(Cl)c1")
92
>>> valueobserved("Cc1ccc2[nH]cnc2c1CNC(=O)c1ccc(OC(F)(F)F)cc1")
97
>>> valueobserved("O=C(NCc1cccc2[nH]ncc12)c1csc(Cl)c1")
56
>>> valueobserved("COc1ccc2ncn(C)c2c1CNC(=O)Nc1ccc(Cl)cc1")
90
>>> valueobserved("O=C(NCc1c(C2CC2)ccc2[nH]ncc12)c1cc(F)c(OC(F)F)c(F)c1")
90
>>> valueobserved("O=C(NCc1cccc2[nH]ncc12)c1ccc(OC(F)F)c(Cl)c1")
97
>>> valueobserved("Cn1nnc2cccc(CNC(=O)c3cnc(OC(F)F)c(F)c3)c21")
82
>>> valueobserved("Cc1ccc2[nH]nnc2c1CNC(=O)c1cnc(OC(F)F)c(F)c1")
97
>>> valueobserved("COc1ccc2ncn(C)c2c1CNC(=O)Nc1ccc(F)c(C)c1")
82
>>> valueobserved("O=C(NCc1c(C2CC2)ccc2[nH]ncc12)c1cc(F)c(C(F)(F)F)c(F)c1")
94
>>> valueobserved("Cc1ccc2[nH]nnc2c1CNC(=O)c1ccc(OC(F)(F)F)cc1")
97
>>> valueobserved("O=C(NCc1cccc2[nH]ncc12)c1ccc(OC(F)(F)F)cc1")
93
